# assay: growth inhibition of non-replicating M. tuberculosis (AID 488890);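 note: plate controls were DMSO cells for no effect and high antibiotic wells for full effect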
# condition.notes: Mycobacterium tuberculosis non-replicating, at 25 µM, stronger effect = higher value
In all, about 320,000 compounds went through this assay and about 1,300 (0.41%) were called active. About 3% were inconclusive and are not listed. These entries were drawn from the full list. Entries with a potency or affinity are not part of this list.
Decide using inhibition: a value greater than or equal to 20% is Fulfilled, a smaller one is Not fulfilled.

[
  {
    "compound": "Cc1ccc(SCC(=O)O/N=C(\\N)c2cccnc2)cc1",
    "qualitative.label": "Fulfilled"
  },
  {
    "compound": "Cc1nc2ccc(NC(=O)Cc3cccc(F)c3)cc2s1",
    "qualitative.label": "Not fulfilled"
  },
  {
    "compound": "COc1ccc(CNC(=O)[C@H](C)NC(=O)[C@@H]2Cc3ccccc3CN2)cc1",
    "qualitative.label": "Not fulfilled"
  },
  {
    "compound": "CC(C)(C)S(=O)(=O)c1ccc2nc3c(n2c1)CCCC3",
    "qualitative.label": "Not fulfilled"
  },
  {
    "compound": "Cc1oc(-c2ccccc2F)nc1CSCC(=O)NC1CC1",
    "qualitative.label": "Not fulfilled"
  },
  {
    "compound": "CC1(C)CC(=O)C(C=Nc2ccc(N)cc2)=C(O)C1",
    "qualitative.label": "Fulfilled"
  }
]

Q. Is reported inhibition greater than or equal to 20% here: COc1ccc(/C=N/Nc2cc(C)nc(N)n2)cc1
A. Fulfilled

Q. Another compound to look at: Cc1cc(N/N=C/c2ccc(F)cc2)nc(NCc2ccccc2)n1
A. Fulfilled

* * *

Reported inhibition values follow for various molecules
# assay: growth inhibition of non-replicating M. tuberculosis (AID 488890);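 note: plate controls were DMSO cells for no effect and high antibiotic wells for full effect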
# condition.notes: Mycobacterium tuberculosis non-replicating, at 25 µM, stronger effect = higher value
About 1,300 (0.41%) of roughly 320,000 compounds were called active. Roughly 3% stayed inconclusive and do not appear here. The list is a sample of the results. Measured potencies and affinities stand elsewhere.
Report as a plain number; the unit % is understood.

[
  {
    "structure.string": "O=C(Nc1cc(Cl)ncn1)c1ccccc1",
    "result.value": 5.29
  },
  {
    "structure.string": "COC(=O)CCSc1cc(NCCOC(C)=O)c([N+](=O)[O-])c2nonc12",
    "result.value": 72.4
  },
  {
    "structure.string": "COc1ccc(-c2nc(NC(=O)Cn3cnnn3)sc2C)cc1",
    "result.value": 13.2
  }
]

Q. Quick one: inhibition for CC(=O)Nc1ccc(NC(=O)C2CCN(C(=O)NC3CCCCC3)CC2)cc1 ?
A. -3.9

Q. Another molecule to look at: COc1ccc(CC(=O)OCc2cc(=O)n3cc(Br)ccc3n2)cc1OC
A. 13.9

Q. Another molecule to look at: CCOc1ccc(NC(=O)Nc2ccc3c(c2)CCC3)cc1
A. -9.82

Q. Another molecule to look at: CCOc1ccccc1N1CCN(C(=O)c2cc[n+]([O-])cc2)CC1
A. 15.7

* * *

# assay: growth inhibition of non-replicating M. tuberculosis (AID 488890);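 note: plate controls were DMSO cells for no effect and high antibiotic wells for full effect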
# condition.notes: Mycobacterium tuberculosis non-replicating, at 25 µM, stronger effect = higher value
Out of some 320,000 compounds screened, about 1,300 (0.41%) were called active. Not shown: some 3% with an inconclusive outcome. Only a sample is shown. Entries with a potency or affinity are not part of this list.
Reported inhibition values follow for various molecules
Report as a plain number; the unit % is understood.

Worked examples, 3 molecules total:
[
  {
    "molecule": "CC(=O)OCCNC(=O)c1cc2ccccc2oc1=O",
    "inhibition / %": -10.9
  },
  {
    "molecule": "COc1cc(/C=C/c2ccc3cccc([N+](=O)[O-])c3n2)ccc1OCC(=O)O",
    "inhibition / %": 31.6
  },
  {
    "molecule": "COc1ccc(C(=O)COC(=O)CCc2nc3ccccc3[nH]c2=O)cc1Br",
    "inhibition / %": 5.73
  }
]

Next:
Q. Quick one: inhibition for CC(NC(=O)c1cc(Br)ccc1Cl)c1ccccc1 (centres undefined) ?
A. 0.91
